Kindly supply the reported combination Emax values for the records listed here.
Tested on: OE33 (Esophageal Adenocarcinoma)
Test: combination Emax (second highest fraction inhibited in the dose matrix, 72 h); higher = more inhibition; extreme values may be limits of the assay
One number for each entry.

Known results for molecules:
Molecule	combination Emax
C=CCn1c(=O)c2cnc(Nc3ccc(N4CCN(C)CC4)cc3)nc2n1-c1cccc(C(C)(C)O)n1 [AZD1775] + C[C@@H]1COCCN1C2=NC(=NC(=C2)C3(CC3)[S@](=N)(=O)C)C4=C5C=CNC5=NC=C4 [AZD6738] (first compound max 1 µM, partner max 10 µM)	0.819
Cc1c2c(nn1C)CSCc1cc(n(C)n1)CSc1cc(c3ccccc3c1)OCCCc1c(C(=O)O)n(C)c3c-2c(Cl)ccc13 [AZD5991] + C[C@@H]1COCCN1C2=NC(=NC(=C2)C3(CC3)[S@](=N)(=O)C)C4=C5C=CNC5=NC=C4 [AZD6738] (first compound max 1 µM, 7x7, partner max 10 µM)	0.784
COc1nnc2ccc(N3CCC(c4ccc(OCCN5CCN(C)C(=O)[C@H]5C)cc4)CC3)nn12 [AZD5153] + C[C@@H]1COCCN1C2=NC(=NC(=C2)C3(CC3)[S@](=N)(=O)C)C4=C5C=CNC5=NC=C4 [AZD6738] (first compound max 1 µM, 7x7, partner max 10 µM)	0.731

Provide the reported combination Emax of each entry below, same order.
1. COc1cccc(OCCCN)c1-c1cc(Nc2cnc(C#N)cn2)n[nH]1 [Prexasertib] + CCc1c2c(nc3ccc(O)cc13)-c1cc3c(c(=O)n1C2)COC(=O)[C@]3(O)CC [SN-38] (first compound max 1 µM, 7x7, partner max 0.3 µM)
2. N#Cc1cnc(Nc2cc(NC[C@H]3CNCCO3)c(C(F)(F)F)cn2)cn1 [SRA737] + Nc1ccn([C@@H]2O[C@H](CO)[C@@H](O)C2(F)F)c(=O)n1 [Gemcitabine] (first compound max 10 µM, 7x7, partner max 0.3 µM)
3. CC1(C)CCC(CN2CCN(c3ccc(C(=O)NS(=O)(=O)c4ccc(NCC5CCOCC5)c([N+](=O)[O-])c4)c(Oc4cnc5[nH]ccc5c4)c3)CC2)=C(c2ccc(Cl)cc2)C1 [Venetoclax] + CCN(CCO)CCCOc1ccc2c(Nc3cc(CC(=O)Nc4cccc(F)c4)[nH]n3)ncnc2c1 [AZD2811] (first compound max 1 µM, 7x7, partner max 1 µM)
4. CCN(CCO)CCCOc1ccc2c(Nc3cc(CC(=O)Nc4cccc(F)c4)[nH]n3)ncnc2c1 [AZD2811] + C=CCn1c(=O)c2cnc(Nc3ccc(N4CCN(C)CC4)cc3)nc2n1-c1cccc(C(C)(C)O)n1 [AZD1775] (first compound max 1 µM, partner max 1 µM)
5. CN(C)CCCOc1ccc(-c2ccc3ncc4c(c3c2)n(C2CCOCC2)c(=O)n4C)cn1 [AZD0156] + O=C(c1cc(Cc2n[nH]c(=O)c3ccccc23)ccc1F)N1CCN(C(=O)C2CC2)CC1 [Olaparib] (first compound max 3 µM, partner max 3 µM)
6. CN(CCO)CC[C@H](CSc1ccccc1)Nc1ccc(S(=O)(=O)NC(=O)c2ccc(N3CCC([C@@H](O)c4ccccc4-c4ccc(Cl)cc4)CC3)cc2)cc1S(=O)(=O)C(F)(F)F [AZD4320] + Nc1ccn([C@@H]2O[C@H](CO)[C@@H](O)C2(F)F)c(=O)n1 [Gemcitabine] (first compound max 1 µM, 7x7, partner max 0.3 µM)
7. CC1(C)CCC(CN2CCN(c3ccc(C(=O)NS(=O)(=O)c4ccc(NCC5CCOCC5)c([N+](=O)[O-])c4)c(Oc4cnc5[nH]ccc5c4)c3)CC2)=C(c2ccc(Cl)cc2)C1 [Venetoclax] + CN(C)CCCOc1ccc(-c2ccc3ncc4c(c3c2)n(C2CCOCC2)c(=O)n4C)cn1 [AZD0156] (first compound max 1 µM, 7x7, partner max 1 µM)
8. CS(=O)(=O)CCNCc1ccc(-c2ccc3ncnc(Nc4ccc(OCc5cccc(F)c5)c(Cl)c4)c3c2)o1 [Lapatinib] + C[C@@H](Oc1cc(-c2cnn(C3CCNCC3)c2)cnc1N)c1c(Cl)ccc(F)c1Cl [Crizotinib] (first compound max 10 µM, 7x7, partner max 10 µM)

Reply text:
1: 0.811; 2: 0.678; 3: 0.174; 4: 0.467; 5: 0.207; 6: 0.586; 7: 0.219; 8: 0.909

Provide the reported combination Emax of each entry below, same order.
1. C[C@@H](Nc1cc(F)cc(F)c1)c1cc(C(=O)N(C)C)cc2c(=O)cc(N3CCOCC3)oc12 [AZD8186] + CC(=O)c1c(C)c2cnc(Nc3ccc(N4CCNCC4)cn3)nc2n(C2CCCC2)c1=O [Palbociclib] (first compound max 10 µM, 7x7, partner max 10 µM)
2. Cc1cc2ncnn2cc1Nc1ncc2c(n1)n(C1CCOCC1)c(=O)n2C [AZD7648] + COc1cc([C@@H]2c3cc4c(cc3[C@@H](O[C@@H]3O[C@@H]5CO[C@@H](C)O[C@H]5[C@H](O)[C@H]3O)[C@H]3COC(=O)[C@H]23)OCO4)cc(OC)c1O [Etoposide] (first compound max 10 µM, 7x7, partner max 10 µM)

Reply text:
1: 0.477; 2: 0.504
